Where these numbers come from: patent US5585382A

experiment.summary: Solubility in water
Listed compounds paired with reported log10 of solubility
Log scale reminder: solubility in µg/mL, then log10 taken.

See these solved cases before continuing.
CS(=O)(=O)O.O=C1c2cccc3cc([N+](=O)[O-])cc(c23)C(=O)N1CCCCNCCCN1C(=O)c2cc([N+](=O)[O-])cc3c2c(cc2cccnc23)C1=O
2.38
CS(=O)(=O)O.O=C1c2cccc3c2c(cc2ccc(C(F)(F)F)cc23)C(=O)N1CCCCNCCCN1C(=O)c2cccc3c2c(cc2ccc(C(F)(F)F)cc23)C1=O
2.43

log10 of solubility for CS(=O)(=O)O.O=C1c2cc([N+](=O)[O-])cc3c2c(cc2cccnc23)C(=O)N1CCCNCCCN1C(=O)c2cc([N+](=O)[O-])cc3c2c(cc2cccnc23)C1=O ?
2.65

log10 of solubility for CS(=O)(=O)O.Cc1nc2cc3c4c(cccc4c2s1)C(=O)N(CCCCNCCCN1C(=O)c2cccc4c2c(cc2nc(C)sc24)C1=O)C3=O ?
3.65

---

System: Murine leukemia L1210 cells
experiment.summary: In vitro growth inhibition of L1210 cells (MTT, 72 hr)
Format: cell-based
condition.context: Mus musculus; L1210 cells, 72 hr, MTT; read-out: L1210 IC50
Listed molecules paired with reported IC50
Number in µg/mL, nothing else.

See these solved cases before continuing.
CS(=O)(=O)O.CS(=O)(=O)O.C[C@H](CNCCNC[C@@H](C)N1C(=O)c2cccc3c4c(cc(c23)C1=O)C(=O)c1ccccc1C4=O)N1C(=O)c2cccc3c4c(cc(c23)C1=O)C(=O)c1ccccc1C4=O
0.105
CS(=O)(=O)O.O=C1c2ccccc2C(=O)c2c1cc1c3c(cccc23)C(=O)N(CCCCNCCCN2C(=O)c3cccc4c5c(cc(c34)C2=O)C(=O)c2ccccc2C5=O)C1=O
0.014
C[C@H](CNC[C@@H](C)N1C(=O)c2cc([N+](=O)[O-])cc3c2c(cc2cccnc23)C1=O)NC[C@@H](C)N1C(=O)c2cc([N+](=O)[O-])cc3c2c(cc2cccnc23)C1=O
0.042

IC50 for CS(=O)(=O)O.CS(=O)(=O)O.CS(=O)(=O)O.Nc1cc2c3c(cc4cccnc4c3c1)C(=O)N(CCCCNCCCN1C(=O)c3cc(N)cc4c3c(cc3cccnc34)C1=O)C2=O ?
0.182

IC50 for O=C1c2cc([N+](=O)[O-])cc3c2c(cc2cccnc23)C(=O)N1CCNCCN1C(=O)c2cc([N+](=O)[O-])cc3c2c(cc2cccnc23)C1=O ?
0.02

---

System: Clone A human colon cancer cells
experiment.summary: In vitro growth inhibition of Clone A cells (MTT, 72 hr)
Assay type: cell-based
condition.context: 72 h, read-out: Clone A IC50
Could you please mark True for values of IC50 below 0.03 µg/mL and False for values at or above it?

// known answers, use as guide
C[C@H](CNCCNC[C@@H](C)N1C(=O)c2cc([N+](=O)[O-])cc3c2c(cc2ccncc23)C1=O)N1C(=O)c2cccc3cc([N+](=O)[O-])cc(c23)C1=O [Example 119]
True
O=C1c2cc([N+](=O)[O-])cc3c2c(cc2cnccc23)C(=O)N1CCCCNCCCN1C(=O)c2cc([N+](=O)[O-])cc3c2c(cc2cnccc23)C1=O [Example 16]
True

Hello, I'm reviewing records and need to know if IC50 of C[C@H](CNCCNC[C@@H](C)N1C(=O)c2cccc3c2c(cc2ccc(F)cc23)C1=O)N1C(=O)c2cccc3cc([N+](=O)[O-])cc(c23)C1=O [Example 120] is below 0.03 µg/mL. Could you check?
True
